Target: MSI1 full-length (mouse, UniProt Q61474 1-362)
Sequence (Q61474 whole entry): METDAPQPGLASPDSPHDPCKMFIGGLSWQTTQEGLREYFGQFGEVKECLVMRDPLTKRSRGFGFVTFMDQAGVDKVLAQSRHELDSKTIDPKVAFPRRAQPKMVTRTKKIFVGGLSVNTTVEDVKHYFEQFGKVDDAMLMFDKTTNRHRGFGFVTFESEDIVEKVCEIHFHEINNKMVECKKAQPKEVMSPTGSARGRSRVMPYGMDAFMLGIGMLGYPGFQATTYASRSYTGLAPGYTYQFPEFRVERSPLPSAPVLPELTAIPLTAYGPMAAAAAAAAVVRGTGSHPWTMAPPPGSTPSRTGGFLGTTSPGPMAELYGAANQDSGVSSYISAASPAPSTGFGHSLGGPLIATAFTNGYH
Assay: nsRBNS (natural sequence RNA bind-n-seq); RBNS binding buffer (assumed for nsRBNS): 25 mM Tris pH 7.5, 150 mM KCl, 3 mM MgCl2, 0.01% Triton X-100, 500 ug/ml BSA, 20 U/ml SUPERase-In, 4 C; UNK is unkempt and MSI1 is Musashi-1; names of the RNAs are library labels; protein concentration not given here; high values mean tight binding
Over roughly 5,800 sequences, “enrichment r” has its median near 0.54; the highest 2% begin near 16. For the sample, the highest values were picked, then their nearest neighbours and some sequences at random.
Measured binding signal by item
Write it as a number; the unit enrichment R goes unstated.

binder	observationType	experimentalValue
chr16:57253408:57253449:+|3pUTR|ENSG00000102931|msi1_unk|total|mutant (ssRNA) RNA: GGGAGUUCUACAGUCCGACGAUCUGUGUGGCCGAUUACUUAUCAGAAAACAUAUAUGUCAUCUCCCGAACGAAGAAAAAGCACCGCCGUUCAAUUCCCAGUGUGUCCCUUUGAUUUUUUUUUUUUAACCGUAAAAAUAAGAAUCAACAGAGGAUUGAGCAUCA	binding signal	0.465
ENSG00000139428:stop:overlap|stop_codon|ENSG00000139428|stop_codon|NA|stop_codon (ssRNA) RNA: GGGAGUUCUACAGUCCGACGAUCUAUUACUAUUCUUAACACUUACCUGUUCCUGGCUACCAUUUCUCCAUGGCGGGCCUGACUAGGUUUGCUCUGGAAUUAGUCACAGAAAAGGGCCAUACAUUUGCCGAAGAGCUUCAGAAACAACAGAGGAUUGAGCAUCA	binding signal	18.8
chr5:111496093:111496242:-|3pUTR|ENSG00000164211|unk|FALSE|unique (ssRNA) RNA: GGGAGUUCUACAGUCCGACGAUCUUUACAUGUAUAGUUAAAUAUUAAAAUUCAUCUCUUGCAGUUCAAUAAAAGCUAUAGUAUAGAUUUUAUUUUUAAGAAGUUUAUAUAAUUCUUUUGUGAACCAAUAUGUAAAACUAGAAUCAACAGAGGAUUGAGCAUCA	binding signal	2.64

Lab note: chr2:16549458:16552935:-|three_prime_utr|ENSG00000197872|control|control|control (ssRNA) RNA: GGGAGUUCUACAGUCCGACGAUCUUGCUACUGGAGUCCUUUAACAACAUCUAUAACGAUAAAAAAUUCCUAAUUGUUUGUGGUAGUAUUUUAAUUCUAGAUGUGUUAUCUCUCUGGGAAGUAUAGUUUAUAGAAACACAAAAUCAACAGAGGAUUGAGCAUCA gave binding signal of 25

Lab note: chr22:45843749:45843850:+|3pUTR|ENSG00000130638|msi1|FALSE|unique (ssRNA) RNA: GGGAGUUCUACAGUCCGACGAUCAAAUUGCAAGUGUUUGAAGAUUUAUAAGUACAAAUUUGGGAACAUACAAAUCUUUUAGGUAGUAGAGUUUAACGUGUAUAAGCUAAAAGUGAAAGUAACUGAGUGUUCUCUUGUUUCUUUCAACAGAGGAUUGAGCAUCA gave binding signal of 7.75

Lab note: chr6:149410404:149410522:+|3pUTR|ENSG00000055208|unk|FALSE|bound_elsewhere (ssRNA) RNA: GGGAGUUCUACAGUCCGACGAUCUUAUAUUUCUAUAUGUAUAGUGUAAUAGCCUUUUGUUAACUAAUUUUCUUUUUUCCUUUUAGUAAUUAAGCACGAUCAUGUCCCUUUUUAAGCCUUACCUGAGAGGAACAAUGCCUUAAACAACAGAGGAUUGAGCAUCA gave binding signal of 30.1

Lab note: chr4:65323451:65323552:-|3pUTR|ENSG00000145242|msi1|FALSE|unique (ssRNA) RNA: GGGAGUUCUACAGUCCGACGAUCAUCAAGAAAAAGUACAAUACAGGGUGUAUAUUUAUUUUUUGUGUUAUAAAGUUUACUUUUAGUUGCUCUUCUAGAGAUUAUUAGGUAAUAAAUGUGUAUAUACUGUAUAAUUUGCAAUAUCAACAGAGGAUUGAGCAUCA gave binding signal of 11.9
